B1: library; a variant is named by its letters at N, in order (parent)
chain: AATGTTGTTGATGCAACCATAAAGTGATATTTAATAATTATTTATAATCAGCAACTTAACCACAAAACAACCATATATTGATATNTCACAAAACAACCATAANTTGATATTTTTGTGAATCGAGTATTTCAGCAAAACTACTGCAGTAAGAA

variants of: B1; assay: relative integration efficiency (T-LR orientation) vs wild-type transposon end (log2 (normalized fold change)); transposon end mutated: left end; higher = more efficient transposition; settings: with VchCAST RNA-guided transposition machinery (E. coli BL21(DE3) host, lacZ target)
Cut-off -0.3 on relative integration efficiency (log2), inclusive. At or above means T; below means F.

Worked examples, 5 variants total:
{"variant designation": "CG C97A", "class": "F"}
{"variant designation": "CG A46C A47C", "class": "F"}
{"variant designation": "CG A22T A23T", "class": "T"}
{"variant designation": "CG T5G T6G", "class": "F"}
{"variant designation": "CG C87A", "class": "F"}

Ask: Determine whether this variant has relative integration efficiency (log2) no lower than -0.3: CG A40G T42G T43A A44G T45C A46G A47G T48A C49T G51A
Result: F

Ask: Please tell me: is the variant CG A16T C17G C18G A19T at or over -0.3 in terms of relative integration efficiency (log2)?
Result: F

Ask: Say whether CG A21C A75C A101C shows relative integration efficiency (log2) of -0.3 or more.
Result: F

Ask: Could you verify whether the entry CG T48A C49A A50T C52T A53G C55G T56C T57G A59G C60T C61A A66C A67C shows relative integration efficiency (log2) of no less than -0.3?
Result: T

Ask: I'd appreciate it if you could say whether CG T8G has relative integration efficiency (log2) at least equal to -0.3.
Result: F
